Target: human 5-HT7 receptor (Homo sapiens, UniProt P34969)
Construct: expressed in transfected cells; host or cells: CHO
Sequence (P34969 whole entry): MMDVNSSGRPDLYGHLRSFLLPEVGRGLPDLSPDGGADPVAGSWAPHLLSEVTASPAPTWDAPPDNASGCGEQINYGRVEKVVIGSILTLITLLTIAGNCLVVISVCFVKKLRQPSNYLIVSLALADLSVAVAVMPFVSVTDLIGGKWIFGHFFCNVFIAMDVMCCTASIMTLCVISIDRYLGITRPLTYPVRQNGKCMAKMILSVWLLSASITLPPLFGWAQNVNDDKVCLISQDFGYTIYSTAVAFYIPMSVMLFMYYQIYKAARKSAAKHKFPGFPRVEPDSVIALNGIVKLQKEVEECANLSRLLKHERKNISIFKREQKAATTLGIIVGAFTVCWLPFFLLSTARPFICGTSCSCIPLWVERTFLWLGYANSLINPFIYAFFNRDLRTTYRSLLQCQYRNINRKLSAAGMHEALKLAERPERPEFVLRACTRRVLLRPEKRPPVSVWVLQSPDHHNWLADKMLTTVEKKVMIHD
Assay: Radioligand binding to serotonin receptor 5-HT7 ([3H] Lysergic acid diethylamide, CHO membranes)
Conditions: read-out: 5-HT7 % inhibition
Where a name gives a salt, the structure may show the parent alone.
The entries below come with measured inhibition at 10 µM values attached.
Recorded metric: inhibition at 10 µM (%)

> print(dat)
                                    molecule      recorded.metric  experimental.result
 1  Cc1ccc2c(c1)c1c(n2CCc2ccc(F)cc2)CCN(C)C1 [1.1.2(1-16)·HCl]  inhibition at 10 µM                   95
 2  CN1CCc2c(c3cc(F)ccc3n2CCCc2ccccc2)C1 [1.3.3(8)·HCl]  inhibition at 10 µM                   83
 3  CN1CCc2c(c3cc(C(F)(F)F)ccc3n2CCc2ccccc2)C1 [1.1.2(1-7)·HCl]  inhibition at 10 µM                   94
 4  CN1CCc2c(c3cc(F)ccc3n2Cc2ccccc2)C1 [1.9(3)·HCl]  inhibition at 10 µM                   81
 5  Cc1ccc2c(c1)c1c(n2CCc2ccccc2)CCCN(C)C1 [1.2.2(1-2)·HCl]  inhibition at 10 µM                   97
 6  Cc1ccc2c(c1)c1c(n2CCc2ccc(C(F)(F)F)cc2)CCN(C)C1 [1.1.2(1-18)·HCl]  inhibition at 10 µM                  103
 7  Cc1ccc2c(c1)[C@@H]1CN(C)CCC[C@@H]1N2CCc1ccc(C)nc1 (relative stereo) [1.6.1(2)·3HCl]  inhibition at 10 µM                    8
 8  COc1ccc(CCn2c3c(c4cc(C)ccc42)CN(C)CC3)cc1 [1.1.2(1-14)·HCl]  inhibition at 10 µM                  100
 9  Cc1ccc2c(c1)c1c(n2Cc2ccccc2)CCCN(C)C1 [1.10(4)·HCl]  inhibition at 10 µM                   75
10  CN1CCc2c(c3ccccc3n2Cc2ccccc2)C1.Cl [1.9(1)·HCl]  inhibition at 10 µM                   91

* * *

Molecular target: recombinant human 5-HT6 receptor (Homo sapiens)
Construct: expressed in transfected cells; host or cells: HeLa
Sequence (P50406 whole entry): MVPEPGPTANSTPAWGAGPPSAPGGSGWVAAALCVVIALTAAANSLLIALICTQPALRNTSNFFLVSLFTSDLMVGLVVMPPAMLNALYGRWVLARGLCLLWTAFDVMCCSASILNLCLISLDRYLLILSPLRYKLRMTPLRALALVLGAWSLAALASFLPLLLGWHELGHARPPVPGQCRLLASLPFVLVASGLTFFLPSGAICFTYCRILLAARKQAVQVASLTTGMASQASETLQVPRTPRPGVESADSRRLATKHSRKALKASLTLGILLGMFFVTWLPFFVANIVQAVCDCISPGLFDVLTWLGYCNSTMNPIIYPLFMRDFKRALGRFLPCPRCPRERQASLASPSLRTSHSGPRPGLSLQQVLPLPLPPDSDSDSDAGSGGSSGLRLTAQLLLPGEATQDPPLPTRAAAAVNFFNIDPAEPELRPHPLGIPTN
Assay: Radioligand binding to serotonin receptor 5-HT6 ([3H] Lysergic acid diethylamide, HeLa membranes)
Settings: 5-HT6
Structures can show the parent of a compound that is named as a salt.
The entries below come with measured nH values attached.
Recorded metric: nH

> print(dat)
                                   compound  experimental.result
1  CN1CCc2c(c3ccccc3n2Cc2ccccc2)C1.Cl [1.9(1)·HCl]                 1.04
2  Cc1ccc2c(c1)c1c(n2CCc2ccccn2)CCN(C)C1 [1.1.2(2-3)·2HCl]                0.744
3  Cc1ccc(S(=O)(=O)n2c3c(c4cc(C)ccc42)CN(C)CCC3)cc1 [1.8.1(3)·HCl]                 1.07
4  CN1CCc2c(c3ccccc3n2Cc2ccccc2)C1 [1.9(1)·1/2NDSA]                 1.07
